Target: FLuc-N-HiBiT (firefly luciferase) (Photinus pyralis, UniProt P08659, form not given/L550V)
Sequence (P08659 2-550 L550V, form open): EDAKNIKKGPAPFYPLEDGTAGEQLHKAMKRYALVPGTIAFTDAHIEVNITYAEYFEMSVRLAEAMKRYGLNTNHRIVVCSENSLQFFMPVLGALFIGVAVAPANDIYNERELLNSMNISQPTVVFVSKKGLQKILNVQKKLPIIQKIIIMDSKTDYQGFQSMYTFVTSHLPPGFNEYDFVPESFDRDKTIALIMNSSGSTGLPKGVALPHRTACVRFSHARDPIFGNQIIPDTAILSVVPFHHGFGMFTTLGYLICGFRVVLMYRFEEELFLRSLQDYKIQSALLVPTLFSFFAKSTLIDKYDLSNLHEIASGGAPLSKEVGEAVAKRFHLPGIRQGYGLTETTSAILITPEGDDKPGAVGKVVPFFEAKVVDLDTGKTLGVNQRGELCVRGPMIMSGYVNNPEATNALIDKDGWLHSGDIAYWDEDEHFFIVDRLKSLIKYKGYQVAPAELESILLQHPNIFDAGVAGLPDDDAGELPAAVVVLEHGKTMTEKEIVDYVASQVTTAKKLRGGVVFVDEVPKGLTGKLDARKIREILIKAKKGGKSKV
Assay: SDR assay, FLuc-N-HiBiT
Details: substituted indoline (clade A'); + ATP
Use label 1 when the recorded pSDR50 (clade A') is no lower than 6; use label 0 when it is lower.

Would you please look over these solved cases?
compound: COc1ccc(NC(=O)N2CCc3c(C(=O)NCCCN4CCCC4=O)cccc32)cc1 [NCGC00430130-01]
systemUnderTest: FLuc-N-HiBiT (firefly luciferase) (Photinus pyralis, UniProt P08659, form not given/L550V)
answerLabel: label 1
//
compound: COc1ccc(NC(=O)N2CCc3c(C(=O)N(C)C)cccc32)cc1 [NCGC00430182-01]
systemUnderTest: FLuc-N-HiBiT (firefly luciferase) (Photinus pyralis, UniProt P08659, form not given/L550V)
answerLabel: label 1
//
compound: O=C(O)c1cccc2c1CCN2C(=O)c1ccccc1 [NCGC00432607-01]
systemUnderTest: FLuc-N-HiBiT (firefly luciferase) (Photinus pyralis, UniProt P08659, form not given/L550V)
answerLabel: label 0
//
compound: CCN1CCN(CCNC(=O)c2cccc3c2CCN3C(=O)Nc2ccc(C)cc2)CC1 [NCGC00430114-01]
systemUnderTest: FLuc-N-HiBiT (firefly luciferase) (Photinus pyralis, UniProt P08659, form not given/L550V)
answerLabel: label 0
//
compound: CCCNC(=O)c1cccc2c1CCN2C(=O)Nc1cccc(C)c1 [NCGC00430116-01]
systemUnderTest: FLuc-N-HiBiT (firefly luciferase) (Photinus pyralis, UniProt P08659, form not given/L550V)
answerLabel: label 0

(Q) Test whether the compound O=C(O)c1cccc2c1CCN2C(=O)Nc1ccc(F)cc1 [NCGC00432687-01] records pSDR50 (clade A') of 6 or higher.
(A) label 1

(Q) Test whether the compound CCOC(=O)C1CCN(C(=O)c2cccc3c2CCN3C(=O)Nc2ccccc2)CC1 [NCGC00430100-01] records pSDR50 (clade A') of 6 or higher.
(A) label 0

Sourced from paper PMC12064818
